meta.source: PubChem BioAssay (NCI)

# System: LOX IMVI melanoma
# METHOD_NOTES: NCI tumour cell line growth inhibition, 48 h
METRIC: TGI

Consider the following illustrative entries.
[
  {
    "COMPOUND": "C/C(=C\\CO)CC/C=C(\\C)CNc1c(F)c(F)c(F)c(F)c1F",
    "TARGET_SYSTEM": "LOX IMVI melanoma",
    "TGI": "80.8 µM"
  },
  {
    "COMPOUND": "Cc1cc(=O)[nH]c(NNC(C#N)c2cccc(O)c2)n1 (stereo unspecified)",
    "TARGET_SYSTEM": "LOX IMVI melanoma",
    "TGI": "> 100 µM"
  },
  {
    "COMPOUND": "COc1ccc2nc3cc(Cl)ccc3c(Sc3ccccc3[N+](=O)[O-])c2c1",
    "TARGET_SYSTEM": "LOX IMVI melanoma",
    "TGI": "> 100 µM"
  },
  {
    "COMPOUND": "O=c1n(CC2CO2)c(=O)n(CC2CO2)n1CC1CO1 (stereo unspecified)",
    "TARGET_SYSTEM": "LOX IMVI melanoma",
    "TGI": "> 100 µM"
  },
  {
    "COMPOUND": "NC(=O)C(=CNC(N)=S)C(N)=O",
    "TARGET_SYSTEM": "LOX IMVI melanoma",
    "TGI": "> 100 µM"
  }
]

Please find the next compound below.
Entry `Clc1cccc(Cc2cn3cc(-c4ccccc4)nc3s2)c1Cl` : reported TGI = ? > 100 µM

---

# Tested on: ACHN renal
# METHOD_NOTES: NCI tumour cell line growth inhibition, 48 h
METRIC: GI50

// worked examples, GI50 included
[
  {
    "MOLECULE": "C=C(CNCCO)[C@@H]1CC[C@]2(CO)CC[C@]3(C)[C@H](CC[C@@H]4[C@@]5(C)CCC(N)C(C)(C)[C@@H]5CC[C@]43C)[C@@H]12 (stereo partly specified)",
    "GI50": "12.2 µM"
  },
  {
    "MOLECULE": "CCOC(=O)Nc1nc2ccc(OCC)cc2s1",
    "GI50": "> 100 µM"
  },
  {
    "MOLECULE": "COc1cc2c(c(OC)c1O)C(=O)C(OC)C(c1ccc(O)c(O)c1)O2 (stereo unspecified)",
    "GI50": "0.662 µM"
  },
  {
    "MOLECULE": "Fc1ccc(Nc2ncnc3ccc(-c4cnc5[nH]ccc5c4)cc23)cc1Cl",
    "GI50": "0.602 µM"
  },
  {
    "MOLECULE": "Cc1cnc(NC(=O)C(Cc2ccccc2)NC(=O)c2ccccc2)s1 (stereo unspecified)",
    "GI50": "3.49 µM"
  },
  {
    "MOLECULE": "CNC(=O)c1cc(Oc2ccc3nc(NC(=O)Nc4ccc(Cl)c(C(F)(F)F)c4)sc3c2)ccn1",
    "GI50": "1.85 µM"
  },
  {
    "MOLECULE": "COc1ccc(-c2cc(-c3ccc(Nc4nc(Nc5ccccc5)nc(Nc5ccc(Cl)cc5)n4)cc3)nc(N)c2C#N)cc1",
    "GI50": "0.885 µM"
  },
  {
    "MOLECULE": "CC(=O)[O][Hg][c]1c(N)c(C)cc(C)c1F",
    "GI50": "1.61 µM"
  }
]

Form field: reported GI50 of `CN(C)c1ccc(-c2cc(-c3ccc(Nc4nc(Nc5ccc(Cl)cc5)nc(Nc5ccc(Cl)cc5)n4)cc3)no2)cc1` 7.9 µM

Subsequent entry: `COc1ccc(C2=CSc3cc(Cl)c(C)cc3S(=O)(=O)N2C(C)=O)cc1` 18.8 µM

Further, for NC(CSC(c1ccccc1)(c1ccccc1)c1ccc2c(c1)OCO2)C(=O)O (stereo unspecified) ? 4.06 µM
